B1: LINE1-mini (parent)
chain: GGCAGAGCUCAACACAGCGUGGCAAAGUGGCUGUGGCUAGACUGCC

variants of: B1; assay: self-cleavage, relative activity (ratio to wild type); higher = more cleavage; in vitro, sequencing; the parent is a self-cleaving ribozyme
Quick rule: self-cleavage of at least 0.07 means label 1, below that means label 0.

{"columns": ["mutation.id", "category"],
 "data": [
  ["A26U C37A", "label 1"],
  ["G17A U43G", "label 0"],
  ["U9C U20A", "label 0"],
  ["C15A C31G", "label 0"],
  ["G22U U28A", "label 1"],
  ["A25U U34A", "label 1"],
  ["A25U C42U", "label 1"],
  ["A6C G7C", "label 1"]
]}
